# Species on record: Rattus norvegicus
# Protocol notes: Reduction in circulating plasma triglyceride levels in rat by oral lipid tolerance test by PK/PD analysis
# Type: functional, organism-based
Result type: pIC50
Friendly reminder that pIC50 comes from taking -log10 of the concentration in mol/L.

Return reported pIC50. Input molecule: O=C(O)C[C@H]1CC[C@@H](Oc2ccc(NC(=O)c3nnc(Nc4ccc(F)c(F)c4)o3)cn2)CC1
9.70

###

# Protocol notes: Clearance in rat
# Type: ADME, organism-based
# Conditions: in vivo
Classification field: enter y for clearance values not below 0.7 mL/min/kg, n for values below it.

The following molecules have reported results that may help.
State whether the measured clearance reaches 0.7 mL/min/kg, counting equality as reaching it, for O=C(Nc1ccc(O[C@H]2CC[C@@H](C(=O)O)CC2)nc1F)c1nnc(Nc2cc(F)c(F)cc2F)o1
y

State whether the measured clearance reaches 0.7 mL/min/kg, counting equality as reaching it, for O=C(Nc1ccc(O[C@H]2CC[C@@H](C(=O)O)CC2)cc1F)c1nnc(Nc2cc(F)c(F)cc2F)o1
n

***
State whether the measured clearance reaches 0.7 mL/min/kg, counting equality as reaching it, for O=C(Nc1ccc(O[C@H]2CC[C@@H](C(=O)O)CC2)nc1F)c1nnc(Nc2ccc(F)c(F)c2)o1
y

State whether the measured clearance reaches 0.7 mL/min/kg, counting equality as reaching it, for O=C(Nc1ccc(O[C@H]2CC[C@@H](C(=O)O)CC2)cc1)c1nnc(Nc2cc(F)c(F)cc2F)o1
y

State whether the measured clearance reaches 0.7 mL/min/kg, counting equality as reaching it, for O=C(Nc1ccc(O[C@H]2CC[C@@H](C(=O)O)CC2)nc1)c1nnc(Nc2ccc(F)c(F)c2)o1
y

###

# Protocol notes: Apparent permeability in MDCK cells assessed as permeability from apical to basolateral side
# Type: ADME, cell-based, Canis lupus familiaris
# Conditions: dog
Classification field: enter 1.0 for Papp A→B values not below 5 ×10⁻⁶ cm/s, 0.0 for values below it.

State whether the measured Papp A→B reaches 5 ×10⁻⁶ cm/s, counting equality as reaching it, for O=C(Nc1ccc(O[C@H]2CC[C@@H](C(=O)O)CC2)cc1)c1nnc(Nc2cc(F)c(F)cc2F)o1
1.0

State whether the measured Papp A→B reaches 5 ×10⁻⁶ cm/s, counting equality as reaching it, for O=C(Nc1ccc(O[C@H]2CC[C@@H](C(=O)O)CC2)nc1F)c1nnc(Nc2cc(F)c(F)cc2F)o1
1.0

State whether the measured Papp A→B reaches 5 ×10⁻⁶ cm/s, counting equality as reaching it, for O=C(O)c1ccc(Oc2ccc(NC(=O)c3nnc(Nc4ccc(F)c(F)c4)o3)cn2)cc1
0.0

***
State whether the measured Papp A→B reaches 5 ×10⁻⁶ cm/s, counting equality as reaching it, for O=C(Nc1ccc(O[C@H]2CC[C@@H](C(=O)O)CC2)nc1)c1nnc(Nc2ccc(F)c(F)c2)o1
0.0

State whether the measured Papp A→B reaches 5 ×10⁻⁶ cm/s, counting equality as reaching it, for O=C(Nc1ccc(O[C@H]2CC[C@@H](C(=O)O)CC2)nc1F)c1nnc(Nc2ccc(F)c(F)c2)o1
1.0

###

# Species: Canis familiaris
# Protocol notes: Unbound clearance in dog
# Format: ADME, organism-based, Canis lupus familiaris
# Conditions: in vivo
Result type: CL free (mL/min/kg)
Form entry: value (mL/min/kg) — number only.

Example compounds with recorded CL free:
Return reported CL free. Input compound: O=C(Nc1ccc(O[C@H]2CC[C@@H](C(=O)O)CC2)nc1)c1nnc(Nc2ccc(F)c(F)c2)o1
130

Return reported CL free. Input compound: O=C(Nc1ccc(O[C@H]2CC[C@@H](C(=O)O)CC2)nc1F)c1nnc(Nc2cc(F)c(F)cc2F)o1
200

Return reported CL free. Input compound: O=C(Nc1ccc(O[C@H]2CC[C@@H](C(=O)O)CC2)cc1F)c1nnc(Nc2cc(F)c(F)cc2F)o1
1700

***
Return reported CL free. Input compound: O=C(O)C[C@H]1CC[C@@H](Oc2ccc(NC(=O)c3nnc(Nc4ccc(F)c(F)c4)o3)cn2)CC1
100

Return reported CL free. Input compound: O=C(Nc1ccc(O[C@H]2CC[C@@H](C(=O)O)CC2)nc1F)c1nnc(Nc2ccc(F)c(F)c2)o1
300

Return reported CL free. Input compound: O=C(Nc1ccc(O[C@H]2CC[C@@H](C(=O)O)CC2)cc1)c1nnc(Nc2cc(F)c(F)cc2F)o1
920

###

logD by entry:
# Protocol notes: Lipophilicity, logD of the compound
# Type: physicochemical
# Conditions: octanol/water
Output spec: single numeric token, no unit.

Return reported logD. Input molecule: O=C(Nc1ccc(O[C@H]2CC[C@@H](C(=O)O)CC2)cc1F)c1nnc(Nc2cc(F)c(F)cc2F)o1
1.9

Return reported logD. Input molecule: O=C(Nc1ccc(O[C@H]2CC[C@@H](C(=O)O)CC2)nc1F)c1nnc(Nc2ccc(F)c(F)c2)o1
1.9

Return reported logD. Input molecule: O=C(O)c1cccc(Oc2ccc(NC(=O)c3nnc(Nc4ccc(F)c(F)c4)o3)cc2)c1
2.3

Return reported logD. Input molecule: O=C(Nc1ccc(O[C@H]2CC[C@@H](C(=O)O)CC2)nc1)c1nnc(Nc2ccc(F)c(F)c2)o1
1.9

Return reported logD. Input molecule: O=C(Nc1cnc(O[C@H]2CC[C@@H](C(=O)O)CC2)cc1F)c1nnc(Nc2cc(F)c(F)cc2F)o1
1.6

Return reported logD. Input molecule: O=C(Nc1ccc(O[C@H]2CC[C@@H](C(=O)O)CC2)nc1F)c1nnc(Nc2cc(F)c(F)cc2F)o1
1.8

***
Return reported logD. Input molecule: O=C(Nc1ccc(O[C@H]2CC[C@H](C(=O)O)CC2)cc1F)c1nnc(Nc2cc(F)c(F)cc2F)o1
1.8

Return reported logD. Input molecule: O=C(Nc1ccc(O[C@H]2CC[C@@H](C(=O)O)CC2)cc1)c1nnc(Nc2cc(F)c(F)cc2F)o1
1.9

###

# Species on record: Rattus norvegicus
# Protocol notes: Unbound clearance in rat
# Assay type: ADME, organism-based
# Conditions: in vivo
Result type: CL free (mL/min/kg)
Form entry: value (mL/min/kg) — number only.

Example compounds with recorded CL free:
Return reported CL free. Input compound: O=C(Nc1ccc(O[C@H]2CC[C@@H](C(=O)O)CC2)nc1)c1nnc(Nc2ccc(F)c(F)c2)o1
740

Return reported CL free. Input compound: O=C(Nc1ccc(O[C@H]2CC[C@@H](C(=O)O)CC2)cc1F)c1nnc(Nc2cc(F)c(F)cc2F)o1
200

Return reported CL free. Input compound: O=C(O)C[C@H]1CC[C@@H](Oc2ccc(NC(=O)c3nnc(Nc4ccc(F)c(F)c4)o3)cn2)CC1
230

Return reported CL free. Input compound: O=C(Nc1ccc(O[C@H]2CC[C@@H](C(=O)O)CC2)nc1F)c1nnc(Nc2ccc(F)c(F)c2)o1
600

***
Return reported CL free. Input compound: O=C(Nc1ccc(O[C@H]2CC[C@@H](C(=O)O)CC2)cc1)c1nnc(Nc2cc(F)c(F)cc2F)o1
470

Return reported CL free. Input compound: O=C(Nc1ccc(O[C@H]2CC[C@@H](C(=O)O)CC2)nc1F)c1nnc(Nc2cc(F)c(F)cc2F)o1
300

###

# Subject of test: Sterol O-acyltransferase 1 (Homo sapiens, UniProt P35610)
# Sequence (P35610 whole entry): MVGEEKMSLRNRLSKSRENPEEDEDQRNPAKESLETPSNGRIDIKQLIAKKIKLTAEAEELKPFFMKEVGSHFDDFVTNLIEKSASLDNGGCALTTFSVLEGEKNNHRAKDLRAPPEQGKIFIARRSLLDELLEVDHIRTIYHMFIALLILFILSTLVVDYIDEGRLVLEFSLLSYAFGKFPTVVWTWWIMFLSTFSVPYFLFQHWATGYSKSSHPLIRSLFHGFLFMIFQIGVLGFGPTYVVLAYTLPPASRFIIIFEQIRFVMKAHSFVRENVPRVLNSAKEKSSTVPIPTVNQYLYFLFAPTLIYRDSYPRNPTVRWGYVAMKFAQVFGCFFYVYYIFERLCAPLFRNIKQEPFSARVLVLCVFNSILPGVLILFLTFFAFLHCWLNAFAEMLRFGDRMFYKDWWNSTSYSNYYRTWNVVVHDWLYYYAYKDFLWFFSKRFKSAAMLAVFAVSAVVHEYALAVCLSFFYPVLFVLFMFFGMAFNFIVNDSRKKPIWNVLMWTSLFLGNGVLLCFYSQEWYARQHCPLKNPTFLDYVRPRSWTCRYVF
# Protocol notes: Inhibition of human ACAT1
IC50 by entry:
Form entry: value (nM) — number only.

Return reported IC50. Input molecule: O=C(Nc1ccc(O[C@H]2CC[C@@H](C(=O)O)CC2)cc1)c1nnc(Nc2ccc(F)c(F)c2)o1
1100

***
Return reported IC50. Input molecule: O=C(Nc1ccc(O[C@H]2CC[C@@H](C(=O)O)CC2)nc1F)c1nnc(Nc2ccc(F)c(F)c2)o1
4800
